system: Rhipicephalus sanguineus; assay: Insecticidal test for Rhipicephalus sanguineus (treated glass petri dish, Table A6); assay type: in vivo; conditions: 0.673 mg/m^2; adults of Rhipicephalus sanguineus; 18 hour exposure, examined after 48 hours; in single
property-measured: death rate (%)

> print(dat)
                                   compound  output.unit  assay.result
1  Cc1cc(C(F)(C(F)(F)F)C(F)(F)F)cc(C)c1NC(=O)c1cccc(NC(=O)c2cccnc2Cl)c1F            %           0.0
2  N#Cc1nn(-c2c(Cl)cc(C(F)(F)F)cc2Cl)c(N)c1[S+]([O-])C(F)(F)F (centres unmarked)            %         100.0
3  O=C(Nc1cccc(C(=O)Nc2c(I)cc(C(F)(C(F)(F)F)C(F)(F)F)cc2I)c1)c1ccccc1            %           0.0
4  CCc1cc(C(F)(C(F)(F)F)C(F)(F)F)cc(C)c1NC(=O)c1cccc(NC(=O)C2CC2)c1            %           0.0
5  O=C(Nc1cccc(C(=O)Nc2c(I)cc(C(F)(F)F)cc2C(F)(F)F)c1)c1ccccc1            %           0.0
